// values below are reported % Res
Target: Rab7 GTPase (UniProt P18067)
Construct: fused on or other part: GST tag, used to hold the protein on glutathione beads
Assay: Multiplex bead-based flow cytometry dose-response, BODIPY-FL-GTP binding to GST-tagged GTPase
Settings: Assay format EDTA; percent response
recorded endpoint: % Res (%)

[[record]]
compound = "CC1(C)Cc2c(sc(NC(=S)NC(=O)c3cccc(Br)c3)c2C(=O)O)CO1"
tgt = "Rab7 GTPase (UniProt P18067)"
output_unit = "%"
val = 41

[[record]]
compound = "CC(C)(C)C1Cc2c(sc(NC(=S)NC(=O)c3ccccc3)c2C(=O)O)CO1 (stereo not drawn)"
tgt = "Rab7 GTPase (UniProt P18067)"
output_unit = "%"
val = 18

[[record]]
compound = "COc1ccccc1C(=O)NC(=S)Nc1sc2c(c1C(=O)O)CC(C)(C)OC2"
tgt = "Rab7 GTPase (UniProt P18067)"
output_unit = "%"
val = 52

[[record]]
compound = "CC1(C)Cc2c(sc(NC(=S)NC(=O)c3ccccc3Br)c2C(=O)O)CO1"
tgt = "Rab7 GTPase (UniProt P18067)"
output_unit = "%"
val = 86

[[record]]
compound = "Cc1ccccc1C(=O)NC(=S)Nc1sc2c(c1C(=O)O)CC(C)(C)OC2"
tgt = "Rab7 GTPase (UniProt P18067)"
output_unit = "%"
val = 95

[[record]]
compound = "CC1(C)CCc2sc(NC(=S)NC(=O)c3ccccc3)c(C(=O)O)c2C1"
tgt = "Rab7 GTPase (UniProt P18067)"
output_unit = "%"
val = 97

[[record]]
compound = "O=C(NC(=S)Nc1sc2c(c1C(=O)O)CC1(CCCC1)OC2)c1ccccc1"
tgt = "Rab7 GTPase (UniProt P18067)"
output_unit = "%"
val = 72

[[record]]
compound = "CC1(C)Cc2c(sc(NC(=S)NC(=O)c3ccccc3F)c2C(=O)O)CO1"
tgt = "Rab7 GTPase (UniProt P18067)"
output_unit = "%"
val = 97

[[record]]
compound = "CC1(C)Cc2c(sc(NC(=S)NC(=O)c3ccco3)c2C(=O)O)CO1"
tgt = "Rab7 GTPase (UniProt P18067)"
output_unit = "%"
val = 105


----------
Experiment: Solubility in PBS and assay media, UV absorbance detection
Assay type: physicochemical
Details: Dose Response-Mg buffer, pH 7.5, aqueous with cosolvent or surfactant or cyclodextrin, Dose Response-Mg buffer: 30 mM HEPES, pH 7.5, 100 mM KCl, 20 mM NaCl, 0.01% NP-40, 1 mM MgCl2; read-out: Solubility
recorded endpoint: solubility (µg/mL)

[[record]]
test_smiles = "CC1(C)Cc2c(sc(NC(=S)NC(=O)c3ccccc3)c2C(=O)O)CO1"
val = 68.1


----------
Target: Rab7 GTPase (UniProt P18067)
Construct: fused on or other part: GST tag, used to hold the protein on glutathione beads
Test: Multiplex bead-based flow cytometry dose-response, BODIPY-FL-GTP binding to GST-tagged GTPase
Details: Assay format EDTA (1 mM EDTA buffer, 100 nM BODIPY-FL-GTP); mean of n replicates
recorded endpoint: EC50 (nM)

[[record]]
compound = "CC1(C)Cc2c(sc(NC(=S)NC(=O)c3cccc(F)c3)c2C(=O)O)CO1 [CID53301930]"
output_unit = "nM"
val = 320

[[record]]
compound = "CC1(C)Cc2c(sc(NC(=S)NC(=O)c3ccco3)c2C(=O)O)CO1 [CID53377402]"
output_unit = "nM"
val = 74

[[record]]
compound = "CC1(C)Cc2c(sc(NC(=S)NC(=O)c3ccc(Br)cc3)c2C(=O)O)CO1 [CID53301933]"
output_unit = "nM"
val = 300

[[record]]
compound = "COc1ccc(C(=O)NC(=S)Nc2sc3c(c2C(=O)O)CC(C)(C)OC3)cc1 [CID53301932]"
output_unit = "nM"
val = 140

[[record]]
compound = "CCC1(C)Cc2c(sc(NC(=S)NC(=O)c3ccccc3)c2C(=O)O)CO1 (centres unmarked) [CID53377401]"
output_unit = "nM"
val = 37

[[record]]
compound = "CC1(C)Cc2c(sc(NC(=S)NC(=O)c3ccccc3Br)c2C(=O)O)CO1 [CID53301931]"
output_unit = "nM"
val = 430

[[record]]
compound = "COc1ccccc1C(=O)NC(=S)Nc1sc2c(c1C(=O)O)CC(C)(C)OC2 [CID53377397]"
output_unit = "nM"
val = 1120

[[record]]
compound = "O=C(NC(=S)Nc1sc2c(c1C(=O)O)CC1(CCCC1)OC2)c1ccccc1 [CID53377403]"
output_unit = "nM"
val = 35


----------
Biological target: Rab7 GTPase (UniProt P18067)
Construct: fused on or other part: GST tag, used to hold the protein on glutathione beads
Experiment: Multiplex bead-based flow cytometry dose-response, BODIPY-FL-GTP binding to GST-tagged GTPase
Conditions: Assay format EDTA (1 mM EDTA buffer, 100 nM BODIPY-FL-GTP); mean of n replicates
pEC50: −log10 of the molar value.
// values below are reported pEC50
recorded endpoint: pEC50

[[record]]
molecule = "Cc1ccccc1C(=O)NC(=S)Nc1sc2c(c1C(=O)O)CC(C)(C)OC2 [CID53377404]"
recorded_endpoint = "pEC50"
val = 6.39

[[record]]
molecule = "Cc1ccc(C(=O)NC(=S)Nc2sc3c(c2C(=O)O)CC(C)(C)OC3)cc1 [CID53377395]"
recorded_endpoint = "pEC50"
val = 6.85

[[record]]
molecule = "Cc1cccc(C(=O)NC(=S)Nc2sc3c(c2C(=O)O)CC(C)(C)OC3)c1 [CID53377400]"
recorded_endpoint = "pEC50"
val = 5.94


----------
Target: Rab7 GTPase (UniProt P18067)
Construct: fused on or other part: GST tag, used to hold the protein on glutathione beads
Test: Multiplex bead-based flow cytometry dose-response, BODIPY-FL-GTP binding to GST-tagged GTPase
Details: Assay format EDTA (1 mM EDTA buffer, 100 nM BODIPY-FL-GTP); mean of n replicates
Please use true for EC50 under 0.5 µM and false for everything else, ties included.

[[record]]
molecule = "CC(C)(C)C1Cc2c(sc(NC(=S)NC(=O)c3ccccc3)c2C(=O)O)CO1 (centres unmarked) [CID53377399]"
group = "true"

[[record]]
molecule = "CC1(C)Cc2c(sc(NC(=S)NC(=O)c3cccc(Br)c3)c2C(=O)O)CO1 [CID53301936]"
group = "false"

[[record]]
molecule = "CC1(C)Cc2c(sc(NC(=S)NC(=O)c3ccccc3F)c2C(=O)O)CO1 [CID53301935]"
group = "true"

[[record]]
molecule = "COc1cccc(C(=O)NC(=S)Nc2sc3c(c2C(=O)O)CC(C)(C)OC3)c1 [CID53301934]"
group = "true"

[[record]]
molecule = "CC1(C)Cc2c(sc(NC(=S)NC(=O)c3ccc(F)cc3)c2C(=O)O)CO1 [CID53377405]"
group = "true"

[[record]]
molecule = "CC1(C)Cc2c(sc(NC(=S)NC(=O)c3cccs3)c2C(=O)O)CO1 [CID53377398]"
group = "true"

[[record]]
molecule = "CC1(C)CCc2sc(NC(=S)NC(=O)c3ccccc3)c(C(=O)O)c2C1 [CID53301937]"
group = "true"

[[record]]
molecule = "CC1(C)Cc2c(sc(NC(=S)NC(=O)C3CCCCC3)c2C(=O)O)CO1 [CID53377396]"
group = "false"


----------
Target: Rab7 GTPase (UniProt P18067)
Construct: fused on or other part: GST tag, used to hold the protein on glutathione beads
Experiment: Multiplex bead-based flow cytometry dose-response, BODIPY-FL-GTP binding to GST-tagged GTPase
Settings: Assay format EDTA; percent response
recorded endpoint: % Res (%)

[[record]]
compound = "CC1(C)Cc2c(sc(NC(=S)NC(=O)c3cccc(F)c3)c2C(=O)O)CO1"
recorded_endpoint = "% Res"
val = 90

[[record]]
compound = "COc1ccc(C(=O)NC(=S)Nc2sc3c(c2C(=O)O)CC(C)(C)OC3)cc1"
recorded_endpoint = "% Res"
val = 94

[[record]]
compound = "CCC1(C)Cc2c(sc(NC(=S)NC(=O)c3ccccc3)c2C(=O)O)CO1 (stereo not shown)"
recorded_endpoint = "% Res"
val = 109

[[record]]
compound = "Cc1ccc(C(=O)NC(=S)Nc2sc3c(c2C(=O)O)CC(C)(C)OC3)cc1"
recorded_endpoint = "% Res"
val = 102

[[record]]
compound = "CC1(C)Cc2c(sc(NC(=S)NC(=O)c3cccs3)c2C(=O)O)CO1"
recorded_endpoint = "% Res"
val = 103

[[record]]
compound = "COc1cccc(C(=O)NC(=S)Nc2sc3c(c2C(=O)O)CC(C)(C)OC3)c1"
recorded_endpoint = "% Res"
val = 68

[[record]]
compound = "Cc1cccc(C(=O)NC(=S)Nc2sc3c(c2C(=O)O)CC(C)(C)OC3)c1"
recorded_endpoint = "% Res"
val = 93

[[record]]
compound = "CC1(C)Cc2c(sc(NC(=S)NC(=O)c3ccc(F)cc3)c2C(=O)O)CO1"
recorded_endpoint = "% Res"
val = 100

[[record]]
compound = "CC1(C)Cc2c(sc(NC(=S)NC(=O)c3ccc(Br)cc3)c2C(=O)O)CO1"
recorded_endpoint = "% Res"
val = 93

[[record]]
compound = "CC1(C)Cc2c(sc(NC(=S)NC(=O)C3CCCCC3)c2C(=O)O)CO1"
recorded_endpoint = "% Res"
val = 89

